Dear all, this message contains pIC50 results, target or system mortalin-NBD (Homo sapiens).
Scale: negative log10 of molar concentration, which is what pIC50 denotes.

Below are worked cases with known answers.
MOLECULE	EXPERIMENTAL SYSTEM	pIC50
Cc1cccc(CNc2ncnc3c2ncn3[C@@H]2O[C@H](COP(=O)(O)OP(=O)(O)O)[C@@H](O)[C@H]2O)c1	mortalin-NBD (Homo sapiens)	2.85
O=P(O)(O)OP(=O)(O)OC[C@H]1O[C@@H](n2cnc3c(NCc4ccco4)ncnc32)[C@H](O)[C@@H]1O [6-Fu ADP, N6-furfuryladenosine-5’-diphosphate]	mortalin-NBD (Homo sapiens)	3.25
O=P(O)(O)OP(=O)(O)OC[C@H]1O[C@@H](n2cnc3c(NC4CCCCC4)ncnc32)[C@H](O)[C@@H]1O [6-cHe ADP, N6-cyclohexyladenosine-5’-diphosphate]	mortalin-NBD (Homo sapiens)	2.80

QUERY: Form: Entry = CSc1nc(N)c2ncn([C@@H]3O[C@H](COP(=O)(O)OP(=O)(O)O)[C@@H](O)[C@H]3O)c2n1 [2-MeS ADP, 2-methylthio-adenosine-5’-diphosphate] | System = mortalin-NBD (Homo sapiens) | pIC50 = ____
RESULT: 3.04

QUERY: GET /values?readout=pIC50&system=mortalin-NBD (Homo sapiens)&item= O=P(O)(O)OP(=O)(O)OC[C@H]1O[C@@H](n2cnc3c(NCCc4ccccc4)ncnc32)[C@H](O)[C@@H]1O
RESULT: 3.76

QUERY: Look up pIC50 with mortalin-NBD (Homo sapiens) for this molecule: O=P(O)(O)OP(=O)(O)OC[C@H]1O[C@@H](n2cnc3c(NCc4ccccc4)ncnc32)[C@H](O)[C@@H]1O [6-Bn ADP, N6-benzyladenosine-5’-diphosphate]
Sequence (P38646 52-431): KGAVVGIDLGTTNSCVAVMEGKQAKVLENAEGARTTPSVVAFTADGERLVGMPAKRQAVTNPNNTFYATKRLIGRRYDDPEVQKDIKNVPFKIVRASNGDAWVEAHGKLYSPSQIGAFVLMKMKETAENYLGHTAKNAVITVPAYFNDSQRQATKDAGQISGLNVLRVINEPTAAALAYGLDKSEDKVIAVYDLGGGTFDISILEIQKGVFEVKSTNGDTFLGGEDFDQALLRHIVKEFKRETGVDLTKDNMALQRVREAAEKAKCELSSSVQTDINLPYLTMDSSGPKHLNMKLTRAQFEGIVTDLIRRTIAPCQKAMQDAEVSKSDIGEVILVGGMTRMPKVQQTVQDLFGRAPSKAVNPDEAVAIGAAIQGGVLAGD
RESULT: 3.93

---

Catalogue of molecules with associated log10 of Kd
- EXPERIMENTAL SYSTEM: Hsc70-NBD (Homo sapiens)
- Sequence (P11142 1-385): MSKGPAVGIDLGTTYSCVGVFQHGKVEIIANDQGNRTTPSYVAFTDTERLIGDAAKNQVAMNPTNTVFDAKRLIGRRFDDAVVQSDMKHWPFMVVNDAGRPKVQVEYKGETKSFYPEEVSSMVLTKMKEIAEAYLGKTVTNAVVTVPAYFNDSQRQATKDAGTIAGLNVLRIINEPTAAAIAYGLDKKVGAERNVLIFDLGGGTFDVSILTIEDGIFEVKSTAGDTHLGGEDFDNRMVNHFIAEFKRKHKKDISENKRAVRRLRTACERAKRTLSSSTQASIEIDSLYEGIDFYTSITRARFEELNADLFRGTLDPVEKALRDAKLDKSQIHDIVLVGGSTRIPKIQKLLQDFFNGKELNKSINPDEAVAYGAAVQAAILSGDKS
- TEST METHOD NOTES: ITC binding of modified ADP analogues to Hsc70-NBD
Give log10 of Kd, with Kd taken in nM.

MOLECULE	EXPERIMENTAL SYSTEM	MEAS VALUE
O=P(O)(O)OP(=O)(O)OC[C@H]1O[C@@H](n2cnc3c(NC4CCCCC4)ncnc32)[C@H](O)[C@@H]1O [6-cHe ADP, N6-cyclohexyladenosine-5’-diphosphate]	Hsc70-NBD (Homo sapiens)	2.55
O=P(O)(O)OP(=O)(O)OC[C@H]1O[C@@H](n2cnc3c(NCc4ccco4)ncnc32)[C@H](O)[C@@H]1O [6-Fu ADP, N6-furfuryladenosine-5’-diphosphate]	Hsc70-NBD (Homo sapiens)	3.94
O=P(O)(O)OP(=O)(O)OC[C@H]1O[C@@H](n2cnc3c(NCCc4ccccc4)ncnc32)[C@H](O)[C@@H]1O	Hsc70-NBD (Homo sapiens)	2.37

QUERY: Please report the recorded log10 of Kd for Cc1cccc(CNc2ncnc3c2ncn3[C@@H]2O[C@H](COP(=O)(O)OP(=O)(O)O)[C@@H](O)[C@H]2O)c1 .
RESULT: 3.53

QUERY: I have this molecule here, O=P(O)(O)OP(=O)(O)OC[C@H]1O[C@@H](n2cnc3c(NCc4ccccc4)ncnc32)[C@H](O)[C@@H]1O [6-Bn ADP, N6-benzyladenosine-5’-diphosphate] , and I need its recorded log10 of Kd.
RESULT: 2.20
